Kindly find below pKi information for UniProt P14416 taken from the literature.
In textbook form, pKi equals minus log to base ten of the concentration in mol/L.

Below, 2 compounds whose answers are already recorded.
INSERT INTO assay_data (givensmiles, measure, reportedvalue) VALUES
  ('CCN1C(=O)c2ccccc2[S@+]([O-])c2ccc(C(=O)NCc3ccc(C#N)cc3)cc21', 'pKi', 7.64),
  ('COc1cc(CN2CCCC2)ccc1OCCCN1CCC(c2noc3cc(F)ccc23)CC1', 'pKi', 8.21);

Turning now to a further compound:
What is its pKi for UniProt P14416? Entry: "COc1ccc(-c2cc(CCCCN3CCN(C(c4ccccc4)c4ccccc4)CC3)on2)cc1OC" 5.58

###

Kindly find below Ki information for UniProt:P14416 taken from the literature.
The answer is to be given in µM; state only the numeric part.

Below, 2 molecules whose answers are already recorded.
INSERT INTO measurements (givensmiles, experimentalsystem, reportedvalue) VALUES
  ('CN1CCN(c2nc(N)nc(COc3ccccc3)n2)CC1', 'UniProt:P14416', 1.35),
  ('CC(C)c1ccccc1OCCCN1CCC(NS(=O)(=O)c2ccc(F)cc2)CC1', 'UniProt:P14416', 0.328);

Turning now to a further molecule:
Tell me the measured Ki of "O=[N+]([O-])c1cccc(-c2cc(CCCCN3CCN(c4ccccc4)CC3)on2)c1" , please. 1.47

###

Kindly find below Ki information for D(2) dopamine receptor (Homo sapiens, UniProt P14416) taken from the literature.
The answer is to be given in nM; state only the numeric part.

INSERT INTO assay_data (compound, measure, unittext, reportedvalue) VALUES
  ('C[C@H]1C=C(C2=Nc3cc(Cl)ccc3Nc3ccc(OC(F)(F)F)cc32)CCN1C', 'Ki', 'nM', 110),
  ('CC1(c2ccc(F)cc2)NC(=O)N(CC(O)CN2CCN(Cc3ccccc3)CC2)C1=O (stereo not given)', 'Ki', 'nM', 20000),
  ('C(=C\c1cc(CCCCN2CCN(C(c3ccccc3)c3ccccc3)CC2)on1)/c1ccccc1', 'Ki', 'nM', 491),
  ('CN[C@@H]1Cc2cccc3c2n(c(=O)n3CCCCCCCCCCOCCCCc2ccccc2)C1', 'Ki', 'nM', 23.8),
  ('CN[C@@H]1c2cc3ccn(S(=O)(=O)c4ccccc4)c3cc2[C@H]1CCO (relative stereo)', 'Ki', 'nM', 15800),
  ('O=C(NCCCCN1CCN(c2ccccc2F)CC1)c1cc2ccccc2o1', 'Ki', 'nM', 76),
  ('CN[C@H]1c2cc3c(ccn3S(=O)(=O)c3ccccc3)cc2[C@@H]1CCO (relative stereo)', 'Ki', 'nM', 6310),
  ('O[C@@H](CCCN1CCN(c2ccccn2)CC1)c1ccc(F)cc1', 'Ki', 'nM', 101);

Turning now to a further compound:
What is its Ki for D(2) dopamine receptor (Homo sapiens, UniProt P14416)? Entry: "CN1CCN(c2nc(N)nc(C(C)(C)Sc3ccccc3Cl)n2)CC1" 727

###

pKi: −log10 of the molar value.
Kindly find below pKi information for D(2) dopamine receptor (Homo sapiens, UniProt P14416) taken from the literature.
Rule: pKi of 7 or more gives t; anything lower gives f.

Before answering, review these 5 worked examples.
INSERT INTO results (molecule, experimentalsystem, answerlabel) VALUES
  ('CCCn1c(=O)n2c3c(cccc31)C[C@@H](N(C)CCCCNC(=O)c1cc3ccccc3[nH]1)C2', 'D(2) dopamine receptor (Homo sapiens, UniProt P14416)', 't'),
  ('COc1ccc2[nH]c(C(=O)NCCC(F)CN3CCN(c4ccccc4OC)CC3)cc2c1 (centres undefined)', 'D(2) dopamine receptor (Homo sapiens, UniProt P14416)', 'f'),
  ('CCCN(CCC)C1COc2c(cccc2C(=O)c2ccccc2OC)C1 (centres undefined)', 'D(2) dopamine receptor (Homo sapiens, UniProt P14416)', 'f'),
  ('O=C1CC(c2c[nH]c3ccc(F)cc23)C(=O)N1CCCCN1CCC(c2c[nH]c3ccc(F)cc23)CC1 (centres undefined)', 'D(2) dopamine receptor (Homo sapiens, UniProt P14416)', 't'),
  ('c1c2c(cc3c1CC[C@@H]1[C@@H]3OCCN1CC1CC1)OCC2', 'D(2) dopamine receptor (Homo sapiens, UniProt P14416)', 'f');

Below: the item to evaluate.
Evaluate "N#Cc1ccc2c(c1)CCN(CC[C@H]1CC[C@H](NC(=O)/C=C/c3ccccc3F)CC1)CC2" : pKi at minimum 7? f
